Record set of pIC50 for target or system Estrogen receptor beta (Homo sapiens).
// returns pIC50 (minus log10 of molar concentration), number only

Prompt: What value of pIC50 has been recorded for this entry: O=C1c2ccc(O)cc2C(=O)N1c1cccc2c(O)cccc12
Completion: 5.55

Prompt: Could you do the same for O=C1c2ccc(O)cc2C(=O)N1c1ccc(O)cc1[N+](=O)[O-] , please?
Completion: 7.04

====

Items are presented alongside their recorded IC50.
Biological target: Estrogen receptor (Homo sapiens, UniProt P03372)
Sequence (P03372 whole entry): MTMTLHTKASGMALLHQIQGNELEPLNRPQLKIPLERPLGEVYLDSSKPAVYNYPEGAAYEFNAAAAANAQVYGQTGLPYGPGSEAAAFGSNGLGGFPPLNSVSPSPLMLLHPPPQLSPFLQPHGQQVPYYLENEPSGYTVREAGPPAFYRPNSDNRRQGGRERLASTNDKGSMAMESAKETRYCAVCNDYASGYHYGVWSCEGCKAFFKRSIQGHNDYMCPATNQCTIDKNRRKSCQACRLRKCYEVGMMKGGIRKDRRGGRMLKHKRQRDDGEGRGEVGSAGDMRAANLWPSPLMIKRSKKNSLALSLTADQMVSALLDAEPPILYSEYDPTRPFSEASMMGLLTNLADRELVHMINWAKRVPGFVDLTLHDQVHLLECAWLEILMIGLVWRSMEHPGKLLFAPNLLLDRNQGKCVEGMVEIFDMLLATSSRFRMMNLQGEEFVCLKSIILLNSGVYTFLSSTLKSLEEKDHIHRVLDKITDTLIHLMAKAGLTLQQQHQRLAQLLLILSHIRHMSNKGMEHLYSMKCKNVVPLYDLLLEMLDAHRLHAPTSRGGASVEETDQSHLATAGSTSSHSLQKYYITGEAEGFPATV

1. O=C1c2ccc(O)cc2C(=O)N1c1ccc(O)cc1[N+](=O)[O-]    21 nM
2. O=C1c2ccc(O)cc2C(=O)N1c1ccccc1    2700 nM
3. O=C1c2ccc(O)cc2C(=O)N1c1ccc(O)c2ccccc12    2640 nM
4. COc1cc(Br)c2c(c1)C(=O)N(c1ccc(O)cc1)C2=O    > 5000 nM
5. COc1ccc(N2C(=O)c3ccc(O)cc3C2=O)c(OC)c1    2470 nM

# evaluate next
Prompt: Given the compound COc1ccc(N2C(=O)c3ccc(O)cc3C2=O)c([N+](=O)[O-])c1 , what is its reported IC50?
Completion: > 5000 nM

====

Organism: Homo sapiens
Test: Selectivity for human LBD of ERbeta over human LBD of ERalpha
MEASUREMENT_TYPE: Ratio IC50

1. O=C1c2ccc(O)cc2C(=O)N1c1ccc(O)cc1    24

Prompt: Any idea what Ratio IC50 was measured for O=C1c2ccc(O)cc2C(=O)N1c1cccc2c(O)cccc12 ?
Completion: 4

Prompt: Now the same for O=C1c2ccc(O)cc2C(=O)N1c1ccc(O)cc1F
Completion: 6

Prompt: Next up: O=C1c2cc(O)cc(Br)c2C(=O)N1c1ccc(O)cc1
Completion: 45

Prompt: Okay, and O=C1c2ccc(O)cc2C(=O)N1c1ccc(O)c2ccccc12 ?
Completion: 0.2

Prompt: How about this molecule: Cc1cc(O)ccc1N1C(=O)c2ccc(O)cc2C1=O
Completion: 4

Prompt: Quick one: O=C1c2ccc(O)cc2C(=O)N1c1ccc(O)cc1[N+](=O)[O-]
Completion: 4

====

Dear all, this message contains IC50 results, target or system Estrogen receptor (Homo sapiens, UniProt P03372).
Output spec: scalar in nM, unitless text.

Prompt: Please report the recorded IC50 for O=C1c2ccc(O)cc2C(=O)N1c1cccc2c(O)cccc12 .
Completion: 802

Prompt: Same question, Cc1cc(O)ccc1N1C(=O)c2ccc(O)cc2C1=O this time
Completion: 802

Prompt: COc1ccc(N2C(=O)c3ccc(O)cc3C2=O)cc1 ?
Completion: 3300

Prompt: Again, but for O=C1c2cc(O)cc(Br)c2C(=O)N1c1ccc(O)cc1
Completion: 36

====

pIC50: −log10 of the molar value.
In what follows, each item is paired with its pIC50 for Estrogen receptor beta (Homo sapiens, UniProt Q92731).

Known results for compounds:
1) O=C1c2ccc(O)cc2C(=O)N1c1cc(O)cc(O)c1    < 5.30
2) O=C1c2ccc(O)cc2C(=O)N1c1cccc(O)c1    < 5.30

Continue with the next compound.
Prompt: Reported pIC50 for COc1ccc(N2C(=O)c3ccc(O)cc3C2=O)c(OC)c1 : what is it?
Completion: < 5.30

All figures here come from ChEMBL document CHEMBL1146264.
